Data origin, for the record: paper PMC8558867

TEST DETAILS: In vivo PK profiling
CONDITION NOTES: male, C57BL/6, mouse, plasma; mice, SC (5 mg/kg)
RECORDED METRIC: half-life at 8 h (h)
Numbers only; they are read as h.

What value of half-life at 8 h has been recorded for this entry: CC[C@@H](C(=O)OCCOCCOCCOCC(=O)N[C@H](C(=O)N1C[C@H](O)C[C@H]1C(=O)NCc1ccc(-c2scnc2C)cc1)C(C)(C)C)[C@@H]1N=C(c2ccc(Cl)cc2)c2c(sc(C)c2C)-n2c(C)nnc21
1.65

* * *

TEST DETAILS: In vivo PK profiling
CONDITION NOTES: male, C57BL/6, mouse, plasma; mice, IV (5 mg/kg); read-out: Vss
RECORDED METRIC: Vd at 8 h (L/kg)
Numbers only; they are read as L/kg.

What value of Vd at 8 h has been recorded for this entry: CC[C@@H](C(=O)OCCOCCOCCOCC(=O)N[C@H](C(=O)N1C[C@H](O)C[C@H]1C(=O)NCc1ccc(-c2scnc2C)cc1)C(C)(C)C)[C@@H]1N=C(c2ccc(Cl)cc2)c2c(sc(C)c2C)-n2c(C)nnc21
1.1

* * *

TEST DETAILS: In vivo PK profiling
CONDITION NOTES: male, C57BL/6, mouse, plasma; mice, IV (5 mg/kg)
RECORDED METRIC: MRT inf (min)
Numbers only; they are read as min.

What value of MRT inf has been recorded for this entry: CC[C@@H](C(=O)OCCOCCOCCOCC(=O)N[C@H](C(=O)N1C[C@H](O)C[C@H]1C(=O)NCc1ccc(-c2scnc2C)cc1)C(C)(C)C)[C@@H]1N=C(c2ccc(Cl)cc2)c2c(sc(C)c2C)-n2c(C)nnc21
23.4

* * *

TEST DETAILS: In vivo PK profiling
CONDITION NOTES: male, C57BL/6, mouse, plasma; mice, IV (5 mg/kg)
RECORDED METRIC: clearance at 8 h (mL/min/kg)
Numbers only; they are read as mL/min/kg.

What value of clearance at 8 h has been recorded for this entry: CC[C@@H](C(=O)OCCOCCOCCOCC(=O)N[C@H](C(=O)N1C[C@H](O)C[C@H]1C(=O)NCc1ccc(-c2scnc2C)cc1)C(C)(C)C)[C@@H]1N=C(c2ccc(Cl)cc2)c2c(sc(C)c2C)-n2c(C)nnc21
47.2

* * *

TEST DETAILS: In vivo PK profiling
CONDITION NOTES: male, C57BL/6, mouse, plasma; mice, SC (5 mg/kg); read-out: AUCinf (μ; M·h)
RECORDED METRIC: AUC(0-inf) at 8 h

What value of AUC(0-inf) at 8 h has been recorded for this entry: CC[C@@H](C(=O)OCCOCCOCCOCC(=O)N[C@H](C(=O)N1C[C@H](O)C[C@H]1C(=O)NCc1ccc(-c2scnc2C)cc1)C(C)(C)C)[C@@H]1N=C(c2ccc(Cl)cc2)c2c(sc(C)c2C)-n2c(C)nnc21
2.4 µM·h
